Recorded values, source paper PMC2714593.

Target: T1, EcMutY Q182L (Escherichia coli, UniProt P17802 1-350, Q182L)
T1 sequence: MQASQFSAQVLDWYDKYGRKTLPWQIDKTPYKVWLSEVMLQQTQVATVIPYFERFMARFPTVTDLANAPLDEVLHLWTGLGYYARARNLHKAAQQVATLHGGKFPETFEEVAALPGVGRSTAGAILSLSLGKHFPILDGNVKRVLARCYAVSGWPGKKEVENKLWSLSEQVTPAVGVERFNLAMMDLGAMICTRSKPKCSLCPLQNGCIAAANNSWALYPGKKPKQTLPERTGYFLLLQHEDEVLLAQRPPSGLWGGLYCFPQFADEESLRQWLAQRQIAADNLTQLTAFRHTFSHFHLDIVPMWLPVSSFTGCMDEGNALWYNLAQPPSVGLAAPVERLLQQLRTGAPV
Experiment: EMSA; 20 mM Tris-HCl pH 7.6, 80 mM NaCl, 1 mM DTT, 1 mM EDTA, 2.9% glycerol, 20 ng poly dI/dC per 20 ul, 0.09 nM labeled DNA, 30 min at 30 C; 4% PAGE in TBE
Settings: protein: recombinant; label: 5'-32P on X strand; blunt; T/G mismatch at strand 1 position 22
measurement.name: Kd (nM)

binder="T/G 44-mer (dsDNA) DNA 1: AATTGGGCTCCTCGAGGAATTTGCCTTCTGCAGGCATGCCCCGG DNA 2: CCGGGGCATGCCTGCAGAAGGCGAATTCCTCGAGGAGCCCAATT" measurement_name=Kd result_unit=nM quantitative_readout=0.043
